Give growth for every item shown.
# Tested on: HT29 colon
# Assay Summary: NCI-60 one-dose screen, 48 h (100 = growth as untreated, 0 = no growth, -100 = all killed)
# Experimental Context: 10 µM unless noted
About 83,000 compounds went through this panel and 20% of them were active in at least one assay; those are over-represented in the sample as a whole.
Kindly answer with a numeric value in %, unit omitted.

Prompt: Kindly indicate its recorded growth. Item: CN1CCN(c2ccc(NC(=O)c3cncnc3Nc3ccc(OCc4cccc(F)c4)c(Cl)c3)cc2)CC1
Response: -55.3

Prompt: // Input: COc1cccc(/C=C/C(=O)c2cc3c(N)c(C(=O)Nc4cccc5ccccc45)sc3nc2C)c1 . Output its growth only.
Response: -11.2

Prompt: Determine its reported growth: COc1ccc(CCN(CC(=O)N(CC(N)=O)C2CCC[C@@H]2OCc2ccccc2)C(=O)CN(C(=O)CN(CCc2ccc(Cl)cc2)C(=O)CN(C(=O)CN(C)Cc2ccccc2F)[C@H](C)C2CCCCC2)[C@H](C)C2CCCCC2)cc1OC (stereo partly specified)
Response: 0.386

Prompt: Please give the documented growth of CN1C(=O)/C(=C2\SC(=Nc3ccccc3)N(Nc3ccccc3)C2=O)c2ccccc21
Response: 119

Prompt: # return recorded growth for entry O=C(Cc1ccccc1)Nc1cccc(N=Cc2ccccc2O)c1
Response: 113

Prompt: Provide only the value of recorded growth for COC(=O)c1nc(-c2ccccc2)oc1S(=O)(=O)NCC(c1ccc(Cl)cc1)N1CCOCC1 (stereo unspecified)
Response: 40
